// values below are reported IC50
measured_target: human NHE3 (Homo sapiens)
Sequence (P48764 26-834): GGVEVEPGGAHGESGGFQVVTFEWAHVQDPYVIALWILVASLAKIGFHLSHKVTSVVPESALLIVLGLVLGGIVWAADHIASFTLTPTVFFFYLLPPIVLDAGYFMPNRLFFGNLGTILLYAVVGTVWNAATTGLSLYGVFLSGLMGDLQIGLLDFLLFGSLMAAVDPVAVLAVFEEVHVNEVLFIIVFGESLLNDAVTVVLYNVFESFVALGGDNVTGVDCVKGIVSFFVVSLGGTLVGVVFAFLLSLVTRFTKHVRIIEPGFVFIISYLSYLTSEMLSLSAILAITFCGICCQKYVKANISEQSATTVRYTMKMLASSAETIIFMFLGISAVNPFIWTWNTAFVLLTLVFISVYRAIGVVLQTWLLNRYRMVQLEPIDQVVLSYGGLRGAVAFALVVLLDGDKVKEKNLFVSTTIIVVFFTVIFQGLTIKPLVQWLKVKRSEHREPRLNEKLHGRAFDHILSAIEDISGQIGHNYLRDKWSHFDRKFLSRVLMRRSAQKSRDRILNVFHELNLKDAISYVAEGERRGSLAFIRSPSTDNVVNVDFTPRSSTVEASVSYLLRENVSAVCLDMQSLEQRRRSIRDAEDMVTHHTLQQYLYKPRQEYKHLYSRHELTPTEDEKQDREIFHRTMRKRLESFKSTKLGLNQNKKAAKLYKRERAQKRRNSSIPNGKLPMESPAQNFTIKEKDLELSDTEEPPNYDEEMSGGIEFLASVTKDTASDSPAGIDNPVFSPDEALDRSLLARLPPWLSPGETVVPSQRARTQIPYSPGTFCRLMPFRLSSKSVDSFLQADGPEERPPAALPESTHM
method_description: Cell-based assay of NHE-3 activity (pre-incubation inhibition), human
conditions_used: PS120 fibroblasts stably expressing human NHE3, 10 min pre-incubation with 0-30 μM test compound; read-out: pIC50 (human Preincubation assay) (converted)

Record O=C(NCCCCNC(=O)NCCOCCOCCNS(=O)(=O)c1ccc(O[C@H]2c3cc(Cl)cc(Cl)c3C[C@@H]2N2CC[C@@H](O)C2)cc1)NCCOCCOCCNS(=O)(=O)c1ccc(O[C@H]2c3cc(Cl)cc(Cl)c3C[C@@H]2N2CC[C@@H](O)C2)cc1 : what is its IC50 with human NHE3 (Homo sapiens)? < 100 nM

Record CN(C)[C@H]1Cc2ccc(Cl)cc2[C@@H]1Oc1ccc(S(=O)(=O)NCCOCCOCCNC(=O)NCCCCNC(=O)NCCOCCOCCNS(=O)(=O)c2ccc(O[C@H]3c4cc(Cl)ccc4C[C@@H]3N(C)C)cc2)cc1 : what is its IC50 with human NHE3 (Homo sapiens)? < 100 nM
